Measured CC50, listed per entry for reference.
method_summary: in vitro
measurement_conditions: human, HeLa CC50

# molecule, comparison_sign, CC50, µM
records = [
    ("NC(=O)/C=C/C(=O)Nc1ccccc1Cl [Compound 7, N1-(2-chlorophenyl)fumaramide]", "=", 40),
    ("CCN1CCOC(CC(=O)Nc2ccc3c(c2)OCCO3)C1=O (stereo not drawn)", ">", 100),
    ("CN1CCN(C(=S)c2ccc(N(C)C)cc2)CC1", "=", 18),
    ("CCc1ccc2nc(N3C(=O)C(O)=C(C(=O)c4cccs4)C3c3ccc([N+](=O)[O-])cc3)sc2c1 (stereo not drawn)", "=", 16),
    ("NC(=O)/C=C/C(=O)Nc1ccccc1 [Compound 6, N1-phenylfumaramide]", "=", 35),
    ("Cc1ccc(N2C(=O)C3C(C2=O)C2(C)C=CC3(C)O2)c(C)c1 (stereo not drawn)", ">", 100),
    ("CCN1CCOC(CC(=O)Nc2ccc(F)cc2)C1=O (stereo not drawn)", "=", 100),
    ("O=C(CC1Sc2ncnn2C1=O)Nc1ccccc1 (stereo not drawn)", "=", 37),
    ("Cc1ccc(NC(=O)/C=C/C(=O)OCC(F)(F)C(F)F)cc1", "=", 28),
]

====

System: P. aeruginosa
method_summary: Minimum inhibitory concentration (broth microdilution)
measurement_conditions: Pseudomonas aeruginosa, read-out: MIC vs. P. aeruginosa
Examples of compounds with documented MIC follow.
measure: MIC

# compound, observed_value
records = [
    ("CCN1CCOC(CC(=O)Nc2ccc3c(c2)OCCO3)C1=O (stereo not shown) [Compound 3]", "> 100 µM"),
    ("CC(Oc1ccc(Cl)cc1Cl)C(=O)NCc1ccc2c(c1)OCO2 (racemic) [Compound 1]", "> 100 µM"),
    ("Cc1ccc(N2C(=O)C3C(C2=O)C2(C)C=CC3(C)O2)c(C)c1 (stereo not shown) [Compound 8]", "> 100 µM"),
    ("CCN1CCOC(CC(=O)Nc2ccc(F)cc2)C1=O (stereo not shown) [Compound 4]", "> 100 µM"),
]

====

System: P. aeruginosa T3SS (exoT-luxCDABE reporter strain MDM852)
Type: cell-based, Pseudomonas aeruginosa
measurement_conditions: % inhibition of exoT-lux RLU in the absence of serum/% inhibition in the presence of 10% fetal calf serum, both at 50 μM compound
measure: Serum Effect

# molecule, measure, observed_value
records = [
    ("CC(Oc1ccc(Cl)cc1Cl)C(=O)NCc1ccc2c(c1)OCO2 (racemic) [Compound 1]", "Serum Effect", 3.7),
    ("Cc1ccc(NC(=O)/C=C/C(=O)OCC(F)(F)C(F)F)cc1 [Compound 5]", "Serum Effect", 2.6),
    ("Cc1ccc(N2C(=O)C3C(C2=O)C2(C)C=CC3(C)O2)c(C)c1 (stereo not shown) [Compound 8]", "Serum Effect", 3.1),
    ("NC(=O)/C=C/C(=O)Nc1ccccc1 [Compound 6, N1-phenylfumaramide]", "Serum Effect", 1.5),
    ("O=C(CC1Sc2ncnn2C1=O)Nc1ccccc1 (stereo not shown) [Compound 2]", "Serum Effect", 2),
    ("CN1CCN(C(=S)c2ccc(N(C)C)cc2)CC1 [Compound 11]", "Serum Effect", 1),
    ("CCN1CCOC(CC(=O)Nc2ccc(F)cc2)C1=O (stereo not shown) [Compound 4]", "Serum Effect", 4.2),
    ("CCc1ccc2nc(N3C(=O)C(O)=C(C(=O)c4cccs4)C3c3ccc([N+](=O)[O-])cc3)sc2c1 (stereo not shown) [Compound 10]", "Serum Effect", 1.8),
    ("NC(=O)/C=C/C(=O)Nc1ccccc1Cl [Compound 7, N1-(2-chlorophenyl)fumaramide]", "Serum Effect", 1.5),
    ("CCN1CCOC(CC(=O)Nc2ccc3c(c2)OCCO3)C1=O (stereo not shown) [Compound 3]", "Serum Effect", 4.8),
]
